Experimental System: T1, orthogonal hCD122 receptor (hoRb), hCD122 with H133D and Y134F (human, UniProt P14784 27-550)
T1 sequence: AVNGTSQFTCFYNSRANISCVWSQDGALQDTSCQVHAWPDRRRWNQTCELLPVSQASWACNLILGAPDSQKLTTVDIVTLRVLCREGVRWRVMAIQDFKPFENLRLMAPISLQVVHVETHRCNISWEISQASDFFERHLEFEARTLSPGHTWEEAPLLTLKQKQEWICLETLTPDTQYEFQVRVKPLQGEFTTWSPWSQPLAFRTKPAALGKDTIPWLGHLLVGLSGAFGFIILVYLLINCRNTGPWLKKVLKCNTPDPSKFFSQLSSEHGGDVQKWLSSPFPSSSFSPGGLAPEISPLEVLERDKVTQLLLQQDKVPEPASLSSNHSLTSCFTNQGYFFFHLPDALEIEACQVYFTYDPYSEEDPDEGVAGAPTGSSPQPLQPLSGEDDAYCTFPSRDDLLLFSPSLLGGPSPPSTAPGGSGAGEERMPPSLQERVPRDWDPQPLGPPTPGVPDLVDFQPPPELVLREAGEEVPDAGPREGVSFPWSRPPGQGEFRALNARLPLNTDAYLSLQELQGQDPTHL
Test Method Notes: cell-based or functional assay
Measured Attribute: 3F8 Ortho Proliferation Signal 1:50 (cts/min)

Binder	Measured Attribute	Unit Tag	Measured Result
Q126S, SQVLKA (ligand) APTSSSTKKTQLQLSQLLVLLKAILNGINNYKNPKLTRMLTFKFYMPKKATELKHLQCLEEELKPLEEVLNLAQSKNFHLRPRDLISNINVIVLELKGSETTFMCEYADETATIVEFLNRWITFCSSIISTLT	3F8 Ortho Proliferation Signal 1:50	cts/min	826
L14M, SQVLKA (ligand) APTSSSTKKTQLQMSQLLVLLKAILNGINNYKNPKLTRMLTFKFYMPKKATELKHLQCLEEELKPLEEVLNLAQSKNFHLRPRDLISNINVIVLELKGSETTFMCEYADETATIVEFLNRWITFCQSIISTLT	3F8 Ortho Proliferation Signal 1:50	cts/min	18500
ΔG27, SQVLKA (ligand) APTSSSTKKTQLQLSQLLVLLKAILNINNYKNPKLTRMLTFKFYMPKKATELKHLQCLEEELKPLEEVLNLAQSKNFHLRPRDLISNINVIVLELKGSETTFMCEYADETATIVEFLNRWITFCQSIISTLT	3F8 Ortho Proliferation Signal 1:50	cts/min	6730
C125S, SQVLKA (ligand) APTSSSTKKTQLQLSQLLVLLKAILNGINNYKNPKLTRMLTFKFYMPKKATELKHLQCLEEELKPLEEVLNLAQSKNFHLRPRDLISNINVIVLELKGSETTFMCEYADETATIVEFLNRWITFSQSIISTLT	3F8 Ortho Proliferation Signal 1:50	cts/min	26100
